SUBJECT OF TEST: Sigma non-opioid intracellular receptor 1 (Cavia porcellus, UniProt Q60492)
Sequence (Q60492 whole entry): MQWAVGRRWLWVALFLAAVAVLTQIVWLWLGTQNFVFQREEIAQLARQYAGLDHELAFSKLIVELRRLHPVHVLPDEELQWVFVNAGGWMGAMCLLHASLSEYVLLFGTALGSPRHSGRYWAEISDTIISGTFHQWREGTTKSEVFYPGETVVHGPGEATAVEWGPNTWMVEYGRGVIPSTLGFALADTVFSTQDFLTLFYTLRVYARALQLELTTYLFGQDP
METHOD SUMMARY: Displacement of [3H]-(+)-pentazocine from sigma 1 receptor PCP binding site in guinea pig brain by liquid scintillation counting
PARAMETER: pKi
pKi here is simply -log10 of the concentration when that concentration is written in mol/L.

Ask: Name the recorded pKi for CC[C@@]1(c2ccccc2)OCC[C@@H](CCN(C)C)O1 (relative stereo) .
Result: 6.29

Ask: Similarly, NCCC[C@@H]1CCO[C@H](c2ccccc2)O1 (relative stereo) ?
Result: 6.78

Ask: Similarly, CC[C@@]1(c2ccccc2)OCC[C@@H](CCN)O1 (relative stereo) ?
Result: 6.02

Ask: Similarly, NCC[C@@H]1CCOC2(O1)C1CC3CC(C1)CC2C3 (some centres not stated) ?
Result: 5.90

Ask: Similarly, `NCCC[C@@H]1CCOC(c2ccccc2)(c2ccccc2)O1` ?
Result: 6.76

New cases:
Ask: Name the recorded pKi for CNCCC[C@@H]1CCO[C@H](c2ccccc2)O1 (relative stereo) .
Result: 6.49

====

SUBJECT OF TEST: Sigma non-opioid intracellular receptor 1 (Cavia porcellus, UniProt Q60492)
METHOD SUMMARY: Displacement of [3H]-(+)-pentazocine from sigma 1 receptor PCP binding site in guinea pig brain by liquid scintillation counting
PARAMETER: pKi
pKi here is simply -log10 of the concentration when that concentration is written in mol/L.

// solved cases for pKi follow
Ask: Name the recorded pKi for CN(C)CCC[C@@H]1CCO[C@H](c2ccccc2)O1 (relative stereo) .
Result: 5.91

Ask: Similarly, CNCC[C@@H]1CCO[C@H](c2ccccc2)O1 (racemic) ?
Result: 6.35

Ask: Similarly, `CN(C)CC[C@@H]1CCOC(c2ccccc2)(c2ccccc2)O1` ?
Result: 6.18

Now consider a different compound.
Ask: Name the recorded pKi for CC[C@@]1(c2ccccc2)OCC[C@@H](CCNCc2ccccc2)O1 (relative stereo) .
Result: 7.57
